Tested on: H. pylori
Experiment Notes: MIC of laboratory H. pylori strains by micro dilution method
Format: cell-based
Test Context: Helicobacter pylori, read-out: minimum inhibitory concentration (MIC), strain 289; bacterial count 10^6 CFU/mL (first line of the strain)
Would you kindly list MIC for each of these compounds?
Please give a number only; it is taken to be in µg/mL.

Q: Fill in: MIC of C[C@H]1COc2c(N3CCN(C)CC3)c(F)cc3c(=O)c(C(=O)O)cn1c23 is ___
Result: 8

Q: Queued: Cc1ncc([N+](=O)[O-])n1CCO
Result: 32

Q: Follow-up entry: CC[C@H]1OC(=O)[C@H](C)[C@@H](O[C@H]2C[C@@](C)(OC)[C@@H](O)[C@H](C)O2)[C@H](C)[C@@H](O[C@@H]2O[C@H](C)C[C@H](N(C)C)[C@H]2O)[C@](C)(OC)C[C@@H](C)C(=O)[C@H](C)[C@@H](O)[C@]1(C)O
Result: 32

Q: Subsequent entry: CC1(C)S[C@@H]2[C@H](NC(=O)[C@H](N)c3ccc(O)cc3)C(=O)N2[C@H]1C(=O)O
Result: 1

----------
System: H. pylori
Experiment Notes: MIC of laboratory H. pylori strains by micro dilution method
Type: cell-based
Test Context: Helicobacter pylori, strain G27; bacterial count 10^6 CFU/mL (first line of the strain); read-out: minimum inhibitory concentration (MIC)
Measurement Label: MIC (µg/mL)
Entry rule: numbers only, all in µg/mL.

Q: Recorded MIC for CC1(C)S[C@@H]2[C@H](NC(=O)[C@H](N)c3ccc(O)cc3)C(=O)N2[C@H]1C(=O)O , please?
Result: 0.0312

Q: Likewise for Cc1ncc([N+](=O)[O-])n1CCO ?
Result: 0.5

Q: Proceed to C[C@H]1COc2c(N3CCN(C)CC3)c(F)cc3c(=O)c(C(=O)O)cn1c23
Result: 0.125

Q: Now the same for CC[C@H]1OC(=O)[C@H](C)[C@@H](O[C@H]2C[C@@](C)(OC)[C@@H](O)[C@H](C)O2)[C@H](C)[C@@H](O[C@@H]2O[C@H](C)C[C@H](N(C)C)[C@H]2O)[C@](C)(OC)C[C@@H](C)C(=O)[C@H](C)[C@@H](O)[C@]1(C)O
Result: 0.0625

----------
Test system: H. pylori
Experiment Notes: MIC of laboratory H. pylori strains by micro dilution method
Format: cell-based
Test Context: Helicobacter pylori, strain G27; bacterial count 10^6 CFU/mL (second line of the strain); read-out: minimum inhibitory concentration (MIC)
Measurement Label: MIC
Be sure to follow the number with its unit.

Q: Entry under review: C[C@H]1COc2c(N3CCN(C)CC3)c(F)cc3c(=O)c(C(=O)O)cn1c23 [Levofloxacin, levofloxacin] . Reported MIC?
Result: 0.0625 µg/mL

Q: Next molecule up: Cc1ncc([N+](=O)[O-])n1CCO [Metronidazole, metronidazole]
Result: 0.5 µg/mL

Q: Param item: CC[C@H]1OC(=O)[C@H](C)[C@@H](O[C@H]2C[C@@](C)(OC)[C@@H](O)[C@H](C)O2)[C@H](C)[C@@H](O[C@@H]2O[C@H](C)C[C@H](N(C)C)[C@H]2O)[C@](C)(OC)C[C@@H](C)C(=O)[C@H](C)[C@@H](O)[C@]1(C)O [Clarithromycin, clarithromycin]
Result: 0.0312 µg/mL

Q: Another molecule to look at: CC1(C)S[C@@H]2[C@H](NC(=O)[C@H](N)c3ccc(O)cc3)C(=O)N2[C@H]1C(=O)O [Amoxicillin, amoxicillin]
Result: 0.0156 µg/mL

----------
Exercise: state measured MIC for each of the molecules provided.
Tested on: clinical H. pylori strain
Experiment Notes: MIC of clinical H. pylori strains by micro dilution method
Type: cell-based
Test Context: Helicobacter pylori, 72 h, clinical strain FY-52; approximately 1.0×10^6 CFU/mL per well; 72 hours; read-out: MIC

Q: Fill in the recorded MIC for this molecule, with clinical H. pylori strain as test system: CC1(C)S[C@@H]2[C@H](NC(=O)[C@H](N)c3ccc(O)cc3)C(=O)N2[C@H]1C(=O)O
Result: < 0.0312 µg/mL

Q: How about C[C@H]1COc2c(N3CCN(C)CC3)c(F)cc3c(=O)c(C(=O)O)cn1c23 ?
Result: 0.25 µg/mL

Q: CC[C@H]1OC(=O)[C@H](C)[C@@H](O[C@H]2C[C@@](C)(OC)[C@@H](O)[C@H](C)O2)[C@H](C)[C@@H](O[C@@H]2O[C@H](C)C[C@H](N(C)C)[C@H]2O)[C@](C)(OC)C[C@@H](C)C(=O)[C@H](C)[C@@H](O)[C@]1(C)O ?
Result: 0.25 µg/mL

Q: Please give the result for Cc1ncc([N+](=O)[O-])n1CCO too.
Result: 1 µg/mL

----------
I'd be grateful if you could share measured MIC for these entries.
Tested on: H. pylori
Experiment Notes: MIC of laboratory H. pylori strains by micro dilution method
Type: cell-based
Test Context: Helicobacter pylori, read-out: minimum inhibitory concentration (MIC), strain 286; bacterial count 10^4 CFU/mL
Report the value in µg/mL with no unit label.

Q: Look up MIC: C[C@H]1COc2c(N3CCN(C)CC3)c(F)cc3c(=O)c(C(=O)O)cn1c23 [Levofloxacin, levofloxacin]
Result: 0.5

Q: Check CC[C@H]1OC(=O)[C@H](C)[C@@H](O[C@H]2C[C@@](C)(OC)[C@@H](O)[C@H](C)O2)[C@H](C)[C@@H](O[C@@H]2O[C@H](C)C[C@H](N(C)C)[C@H]2O)[C@](C)(OC)C[C@@H](C)C(=O)[C@H](C)[C@@H](O)[C@]1(C)O [Clarithromycin, clarithromycin] too.
Result: 1

Q: Entry to check: CC1(C)S[C@@H]2[C@H](NC(=O)[C@H](N)c3ccc(O)cc3)C(=O)N2[C@H]1C(=O)O [Amoxicillin, amoxicillin]
Result: 0.5

Q: Same for Cc1ncc([N+](=O)[O-])n1CCO [Metronidazole, metronidazole]
Result: 4

----------
System: clinical H. pylori strain
Experiment Notes: MIC of clinical H. pylori strains by micro dilution method
Format: cell-based
Test Context: Helicobacter pylori, 72 h, clinical strain FY-31; approximately 1.0×10^6 CFU/mL per well; 72 hours; read-out: MIC
Measurement Label: MIC (µg/mL)
I only need the number, in µg/mL, no unit after it.

Q: Would you mind telling me what MIC value was observed for CC1(C)S[C@@H]2[C@H](NC(=O)[C@H](N)c3ccc(O)cc3)C(=O)N2[C@H]1C(=O)O [Amoxicillin, amoxicillin] ?
Result: 0.0312

Q: For C[C@H]1COc2c(N3CCN(C)CC3)c(F)cc3c(=O)c(C(=O)O)cn1c23 [Levofloxacin, levofloxacin] then?
Result: 16

Q: Then this molecule: Cc1ncc([N+](=O)[O-])n1CCO [Metronidazole, metronidazole]
Result: 1

Q: Lookup CC[C@H]1OC(=O)[C@H](C)[C@@H](O[C@H]2C[C@@](C)(OC)[C@@H](O)[C@H](C)O2)[C@H](C)[C@@H](O[C@@H]2O[C@H](C)C[C@H](N(C)C)[C@H]2O)[C@](C)(OC)C[C@@H](C)C(=O)[C@H](C)[C@@H](O)[C@]1(C)O [Clarithromycin, clarithromycin]
Result: 0.0625
